- assayed_system: mouse B6 class I antigens (D^b or K^b molecules on the surface of RMA-S cells) (mouse (C57Bl/6))
- Sequence (P01899 25-362, chain 1 of 2): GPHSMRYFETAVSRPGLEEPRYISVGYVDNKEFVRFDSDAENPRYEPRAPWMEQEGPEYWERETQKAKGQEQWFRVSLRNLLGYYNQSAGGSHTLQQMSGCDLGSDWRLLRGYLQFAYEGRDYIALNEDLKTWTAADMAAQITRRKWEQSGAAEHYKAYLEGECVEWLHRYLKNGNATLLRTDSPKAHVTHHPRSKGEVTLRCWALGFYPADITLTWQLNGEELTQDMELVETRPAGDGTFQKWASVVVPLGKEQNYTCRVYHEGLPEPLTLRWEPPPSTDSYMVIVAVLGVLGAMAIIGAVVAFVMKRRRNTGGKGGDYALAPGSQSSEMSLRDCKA
- Sequence (P01887 21-119, chain 2 of 2, further chain): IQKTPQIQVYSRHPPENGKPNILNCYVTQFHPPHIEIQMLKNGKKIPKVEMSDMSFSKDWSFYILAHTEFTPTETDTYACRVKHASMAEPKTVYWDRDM
- assay: binding of 9mer peptides within p117-139 to mouse B6 (H-2^b) class I, RMA-S assay as in Example 4
Recorded Binding Affinity to Mouse MHC Class I by entry
Could you give me the number in %? Just the number is fine.

// known answers, use as guide
{"binder": "QASSGQARM [WT1 peptide P119-127 …]", "meas_value": 2}
{"binder": "SQASSGQAR [WT1 peptide P118-126 …]", "meas_value": 2}
{"binder": "APYLPSCLE [WT1 peptide P131-139 …]", "meas_value": 1}

# ---- query binder ----
input: GET /values?readout=Binding Affinity to Mouse MHC Class I&item= ARMFPNAPY [WT1 peptide P125-133 …]
output: 1
